Test system: SNB-19 CNS
Assay: NCI-60 one-dose screen, 48 h (100 = growth as untreated, 0 = no growth, -100 = all killed)
Details: 10 µM unless noted
Compounds without any hit were thinned out: in the full panel of roughly 83,000, 20% have a hit.
growth vs 90%: at or above is Y, below is N.

molecule=O=S(=O)(CC(O)(c1ccccc1)c1ccccc1)CC(O)(c1ccccc1)c1ccccc1 class=N

Lookup: Check if growth >= 90% (inclusive). Item: `Cc1ccc(/C=C2\CN(C(=O)CCN3CCC(=NO)CC3)C/C(=C\c3ccc(C)cc3)C2=O)cc1`
Found: N

Lookup: Say whether `CC(=O)Oc1csc(N(C(C)=O)c2cc(C(=O)O)cc(C(=O)O)c2)n1` shows growth of 90% or more.
Found: Y

Lookup: Is growth for O=C1Nc2ccc(Cl)cc2C12Nc1cc(Cl)ccc1S2 (stereo not given) at or above 90%?
Found: Y

Lookup: Could you please find out whether CCN1C(=O)N(CC)C2C1NN=c1s/c(=C\c3cccnc3)c(=O)n12 (stereo not given) has growth that meets 90% or exceeds it?
Found: N

Lookup: Has CN(CCCCCl)P(=O)(OCc1ccc([N+](=O)[O-])o1)C(F)(F)C[C@H](NC(=O)CNC(=O)c1ccc(N=[N+]=[N-])cc1)C(=O)NCCc1ccc(O)cc1 (stereo not given in full) a recorded growth greater than or equal to 90%?
Found: Y

Lookup: Determine whether measured growth meets or exceeds 90% for `C[n+]1c(/C=C/c2c(O)ccc3ccccc23)ccc2ccccc21`
Found: N

Lookup: Dear colleague, could you confirm whether COc1ccc(C2C=C(c3ccc(N)cc3)N=C3SC=CN32)cc1OC (stereo not given) has growth at or above 90%?
Found: Y

----------
Tested on: T-47D breast
Test: NCI-60 one-dose screen, 48 h
Settings: 10 µM unless noted
Compounds without any hit were thinned out: in the full panel of roughly 83,000, 20% have a hit. Active and inactive are the calls of the source. The calls were made as follows: active = growth percent below 10; inactive = the rest.
Lab note: assign the record to one of active, inactive

// known answers, use as guide
molecule=Clc1cccc(-c2cc(-c3ccc4c(c3)OCCO4)[nH]n2)c1 class=inactive
molecule=C=C[C@@H]1C[C@H](O)Cc2ccccc2N1 class=inactive
molecule=CCN(CC)c1ccc(CNc2ccnc3ccccc23)cc1 class=inactive

Lookup: Record lookup: outcome of this test for `N=c1ccc2nc3ccc(N)cc3sc-2c1` ?
Found: active

Lookup: Given `COc1ccc(/C(C#N)=C/c2cc(OC)c(OC)c(OC)c2)cc1` , state the outcome it received in this test.
Found: inactive

Lookup: Status in this test for `CCN(CC)CCOc1ccc(/C(=C(/C)c2ccccc2)c2ccc(OC(C)=O)cc2)cc1` ?
Found: inactive

----------
System: DU-145 prostate
Experiment: NCI-60 one-dose screen, 48 h
Conditions: 10 µM unless noted
About 83,000 compounds went through this panel and 20% of them were active in at least one assay; those are over-represented in the sample as a whole. Active and inactive are the calls of the source. The calls were made as follows: active = growth percent below 10; inactive = the rest.
Select the matching outcome among active, inactive

Consider the worked cases shown below.
molecule=COc1cccc(-c2nc3sccn3c2-c2ccnc(NCCCNS(=O)(=O)c3ccc(F)cc3)c2)c1 system_name="DU-145 prostate" class=inactive
molecule=COc1ccc(C(=O)c2cc(OC)c(OC)c(OC)c2OC)cc1O system_name="DU-145 prostate" class=inactive
molecule=Cn1cnc2c(N3CCN(C(=O)OCc4ccc5c(Cl)cc(Cl)c(O)c5n4)CC3)nc(Cl)nc21 system_name="DU-145 prostate" class=inactive

Then this molecule:
Lookup: Could you please tell me the result logged for C=C1CCC2C3(C)COC(c4ccc(N(C)C)cc4)OC3CCC2(C)C1C/C=C1/C(=O)OCC1O (stereo not given) in this assay?
Found: active

----------
Tested on: LOX IMVI melanoma
Test: NCI-60 one-dose screen, 48 h
Conditions: 10 µM unless noted
Method: Growth inhibition of the LOX IMVI human tumor cell line is measured as a screen for anti-cancer activity. Cells are grown in 96 well plates and exposed to the test compound for 48 hours. Compounds are tested at a single concentration, which is 10^-5 M for most compounds. The reported endpoint is percent growth (GI% or GIPRCNT), where numbers from 0 - 100% represent growth inhibition, and numbers from -100% - 0 represent cell death. For example, a value of 40 represents 60% growth inhibition. […]
Compounds without any hit were thinned out: in the full panel of roughly 83,000, 20% have a hit. Activity calls are given as the source filed them. Rule for the calls: active = growth percent below 10; inactive = the rest.
Output constraint: value belongs to Y for active, N for inactive

Study these solved cases before continuing.
molecule="O=c1ccn(C2CC(O)C(O)C(CO)O2)c(=O)[nH]1 (stereo unspecified)" system_name="LOX IMVI melanoma" class=N
molecule=COc1ccc2[nH]c(=O)c(/C=N/Nc3nc(-c4ccccc4)cs3)c(O)c2c1 system_name="LOX IMVI melanoma" class=N
molecule=Cc1ccc(CSC(=N)N)cc1C system_name="LOX IMVI melanoma" class=N
molecule="CCC(=O)OC1=CN2C(=NC(c3ccc(N)cc3)=CC2c2cc(OC)c(OC)c(OC)c2)S1 (stereo unspecified)" system_name="LOX IMVI melanoma" class=N
molecule=O=S(=O)(NCCCNc1nccc(-n2ccc3cccnc32)n1)c1cccc(C(F)(F)F)c1 system_name="LOX IMVI melanoma" class=N

Lookup: Field: outcome | Entry: `CC(C)CSc1nc(NN)c(C#N)c(-c2ccc(F)cc2)n1`
Found: N

Lookup: Please share the test call associated with `COc1ccc(-c2nc(/C=N/Nc3cc(C)nc4ccc(Cl)cc34)c(C)o2)cc1` .
Found: Y

Lookup: Would you mind telling me which call this test gave `CCN(CC)c1ccc(N=O)cc1` ?
Found: N

Lookup: For `CC1(c2ccc(Cl)cc2)OC(=O)CC(=O)O1` , which call appears in the assay record?
Found: N

Lookup: Name the outcome recorded for `O=C(NCCCNc1nccc(-n2ccc3cccnc32)n1)c1c(F)cccc1F` in the assay.
Found: N

Lookup: I'd appreciate the recorded outcome for O=C1c2c(Cl)c(Cl)c(Cl)c(Cl)c2C(=O)C2(Cl)CC=CCC12Cl (stereo unspecified) from this test.
Found: Y

----------
System: BT-549 breast
Experiment: NCI-60 one-dose screen, 48 h
Conditions: 10 µM unless noted
The panel holds about 83,000 compounds, 20% with a hit somewhere; the sample as a whole holds those more often. Activity calls are given as the source filed them. The calls were made as follows: active = growth percent below 10; inactive = the rest.
// one of TRUE (active), FALSE (inactive), no free text

Lookup: Check the results log: what was the call for `CO[C@H]1NC(=O)N(S(=O)(=O)c2ccc(Cl)cc2)[C@@H]1OC` ?
Found: FALSE

Lookup: Give the logged outcome of this assay for the following compound: `Cc1ccc2ccccc2c1C[n+]1ccccc1`
Found: FALSE

Lookup: GET /call?item= `Cc1ccc(S(=O)(=O)NCCNc2nccc(-c3c(-c4cccc(N)c4)nc4sccn34)n2)cc1` returns the recorded outcome of this test.
Found: FALSE

Lookup: Recorded test call requested for `COc1ccc(-c2[nH]nc(N)c2-c2cc(OC)c3c(c2)OCO3)cc1`
Found: FALSE

Lookup: Tell me the assay call for `COc1cc2c(cc1OCCCCCn1c3ccccc3c3ccccc31)N=C[C@@H]1CCCN1C2=O` please.
Found: TRUE

Lookup: Could you kindly confirm the outcome this assay logged for CN(C)c1nc2c(N)ncnc2n1C1OC(CO)C(O)C1O (stereo unspecified) ?
Found: FALSE

Lookup: # outcome recorded in this test, key = `CCCCCCCCN(CCCCCCCC)CCCCCCNc1cc(OC)cc2cccnc12`
Found: FALSE

Lookup: Which outcome did this test record for the compound `Cn1ccc(=O)c(S(N)(=O)=O)c1` ?
Found: FALSE

Lookup: Dear colleague, could you share the recorded outcome for `COc1cc(-c2nn(-c3cccc(NC(=O)Nc4ccc(Cl)c(Cl)c4)c3)cc2-c2ccncc2)ccc1Cl` when you have a moment?
Found: TRUE

Lookup: Record request — test call for `COc1cc(NCCCCCN)c2ncccc2c1`
Found: FALSE

Lookup: How was `COc1ccc(/C=C2\Oc3cc(OCCCN4CCCC4)ccc3C2=O)c(OC)c1` classified in this test?
Found: FALSE

Lookup: Give the logged outcome of this assay for the following compound: `Cc1cc(N/N=C/c2nc(-c3ccc(Br)cc3)oc2C)c2cc(Br)ccc2n1`
Found: FALSE

Lookup: Please state the recorded outcome for this compound: `CCOC(=O)CC(=O)OC`
Found: FALSE

Lookup: Returns: the outcome recorded for `O=[N+]([O-])c1cccc(-c2nc3sccn3c2-c2ccnc(NCCCNS(=O)(=O)c3ccc(C(F)(F)F)cc3)n2)c1` in this assay.
Found: FALSE

Lookup: Give the logged outcome of this assay for the following compound: `COc1ccc(S(=O)(=O)NCCCNc2nccc(-c3c(-c4cccc([N+](=O)[O-])c4)nc4sccn34)n2)cc1`
Found: FALSE

Lookup: Check the results log: what was the call for `CCN1CCN(c2nc(NNC(=O)c3ccccc3)nc(N3CCN(C(c4ccccc4)c4ccccc4)CC3)n2)CC1` ?
Found: FALSE

Lookup: Given O=C1Nc2ccc(Cl)cc2C12Nc1cc(Cl)ccc1S2 (stereo unspecified) , state the outcome it received in this test.
Found: FALSE

Lookup: # lookup: test call for Cc1csc(NC(c2ccccc2)c2c(C)nc3ccccn23)n1 (stereo unspecified)
Found: FALSE

Lookup: Identify the outcome logged in this assay for the compound shown: `CN1CCN(Cc2ccc(NC(=O)c3cncc(C#Cc4cnc(N)c5ccncc45)c3)cc2C(F)(F)F)CC1`
Found: FALSE

Lookup: Check the results log: what was the call for `Brc1cccc(-c2cc(-c3ccc4c(c3)OCCCO4)[nH]n2)c1` ?
Found: FALSE

Lookup: Dear colleague, could you share the recorded outcome for `C=CCn1c2ccccc2c2c3c(c4c5ccccc5n(CC=C)c4c21)C(=O)N(O)C3=O` when you have a moment?
Found: FALSE
